assay_target: hSERT (Homo sapiens, UniProt P31645, K490T)
Sequence (P31645 whole entry K490T): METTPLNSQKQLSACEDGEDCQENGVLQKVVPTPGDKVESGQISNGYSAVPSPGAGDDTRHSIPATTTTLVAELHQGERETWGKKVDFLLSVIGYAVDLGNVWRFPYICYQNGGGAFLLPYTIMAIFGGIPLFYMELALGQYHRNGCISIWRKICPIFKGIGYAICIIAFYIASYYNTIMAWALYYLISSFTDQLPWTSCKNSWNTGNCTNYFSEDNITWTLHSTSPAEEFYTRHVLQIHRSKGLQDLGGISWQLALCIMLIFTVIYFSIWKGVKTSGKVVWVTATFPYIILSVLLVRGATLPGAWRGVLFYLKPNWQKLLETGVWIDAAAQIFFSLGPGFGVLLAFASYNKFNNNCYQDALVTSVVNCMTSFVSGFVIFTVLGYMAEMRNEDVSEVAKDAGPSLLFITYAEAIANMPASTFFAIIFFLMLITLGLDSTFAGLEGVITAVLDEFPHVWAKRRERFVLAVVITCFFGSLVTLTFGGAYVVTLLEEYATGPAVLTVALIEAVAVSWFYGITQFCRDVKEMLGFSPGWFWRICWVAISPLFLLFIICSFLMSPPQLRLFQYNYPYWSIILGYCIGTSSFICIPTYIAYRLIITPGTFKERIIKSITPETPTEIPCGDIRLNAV
assay_explanation: cell-based
pIC50: −log10 of the molar value.

{"compound": "C[N+](C)(C)CCC(Oc1ccc(C(F)(F)F)cc1)c1ccccc1 (racemic)", "pIC50": 6.22}

---

assay_target: iEscSnFR
assay_explanation: isothermal titration calorimetry
cond: 3x PBS pH […] °C
pKd: −log10 of the molar value.
outcome_measure: pKd

{"smiles_str": "CN(C)CCC[C@@]1(c2ccc(F)cc2)OCc2cc(C#N)ccc21", "assay_target": "iEscSnFR", "outcome_measure": "pKd", "number": 5.47}
